From: patent US20090076278A1

assay: Solubility of methine dye in TFP; type: physicochemical; conditions: dissolved in 100 ml of TFP at 20° C.
Decision: Solubility >= 1 % by weight yields yes (1), all other cases yield no (0).

Observe how each entry below is paired with its result.
CCN1C(=CC=CC2=[N+](CC)c3ccc4ccccc4c3C2(C)CCCCC2(C)C(C=CC=C3N(CC)c4ccc5ccccc5c4C3(C)Cc3ccccc3)=[N+](CC)c3ccc4ccccc4c32)C(C)(Cc2ccccc2)c2c1ccc1ccccc21.F[P-](F)(F)(F)(F)F.F[P-](F)(F)(F)(F)F (centres unmarked)    yes (1)
CCN1C(=CC=CC2=[N+](CCCCCC[N+]3=C(C=CC=C4N(CC)c5ccc6ccccc6c5C4(C)C)C(C)(C)c4c3ccc3ccccc43)c3ccc4ccccc4c3C2(C)C)C(C)(C)c2c1ccc1ccccc21    no (0)
CCN1C(=CC=CC2=[N+](C)c3ccc4ccccc4c3C2(C)Cc2ccc(CC3(C)C(C=CC=C4N(CC)c5ccc6ccccc6c5C4(C)Cc4ccccc4)=[N+](C)c4ccc5ccccc5c43)cc2)C(C)(Cc2ccccc2)c2c1ccc1ccccc21.F[P-](F)(F)(F)(F)F.F[P-](F)(F)(F)(F)F (centres unmarked)    yes (1)
CCN1C(=CC=CC2=[N+](CC)c3ccc4ccccc4c3C23CCCCC3)C(C)(C)c2c1ccc1ccccc21    no (0)

Next, consider the following compound.
Q: Item CCN1C(=CC=CC2=[N+](CC)c3ccc4ccccc4c3C2(C)C)C(C)(C)c2c1ccc1ccccc21 [Chemical Formula 65, reference compound] with Solubility of 1 % by weight or above?
Result: yes (1)

* * *

experiment: Light tolerance of dye thin membrane under xenon lamp exposure; type: physicochemical; settings: thin membrane on glass substrate; 7.5 kw xenon lamp, two hours, 180 W/m^2; transmittance at absorption maximum wavelength (about 550 nm)
propertyName: Residual percentage (%) of dye
Number in %, nothing else.

Below, 7 compounds whose answers are already recorded.
CCN1C(=CC=CC2=[N+](CC)c3ccc4ccccc4c3C2(C)C)C(C)(C)c2c1ccc1ccccc21 [Chemical Formula 65, reference compound]    73
CCN1C(=CC=CC2=[N+](CC)c3ccc4ccccc4c3C23CCCCC3)C(C)(C)c2c1ccc1ccccc21 [Chemical Formula 66]    58
CCN1C(=CC=CC2=[N+](CCCCCC[N+]3=C(C=CC=C4N(CC)c5ccc6ccccc6c5C4(C)C)C(C)(C)c4c3ccc3ccccc43)c3ccc4ccccc4c3C2(C)C)C(C)(C)c2c1ccc1ccccc21 [Chemical Formula 67]    60
CCN1C(=CC=CC2=[N+](CC)c3ccc4ccccc4c3C2(C)CCCCCCC2(C)C(C=CC=C3N(CC)c4ccc5ccccc5c4C3(C)C)=[N+](CC)c3ccc4ccccc4c32)C(C)(C)c2c1ccc1ccccc21.F[P-](F)(F)(F)(F)F.F[P-](F)(F)(F)(F)F (centres unmarked) [Chemical Formula 8]    75
CCN1C(=CC=CC2=[N+](CC)c3ccc4ccccc4c3C2(C)Cc2ccccc2)C(C)(Cc2ccccc2)c2c1ccc1ccccc21 (centres unmarked) [Chemical Formula 68, reference compound]    50
CCN1C(=CC=CC2=[N+](CC)c3ccc4ccccc4c3C2(C)CCCCC2(C)C(C=CC=C3N(CC)c4ccc5ccccc5c4C3(C)Cc3ccccc3)=[N+](CC)c3ccc4ccccc4c32)C(C)(Cc2ccccc2)c2c1ccc1ccccc21.F[P-](F)(F)(F)(F)F.F[P-](F)(F)(F)(F)F (centres unmarked) [Chemical Formula 2]    66
CCN1C(=CC=CC2=[N+](C)c3ccc4ccccc4c3C2(C)Cc2ccc(CC3(C)C(C=CC=C4N(CC)c5ccc6ccccc6c5C4(C)Cc4ccccc4)=[N+](C)c4ccc5ccccc5c43)cc2)C(C)(Cc2ccccc2)c2c1ccc1ccccc21.F[P-](F)(F)(F)(F)F.F[P-](F)(F)(F)(F)F (centres unmarked) [Chemical Formula 36]    64

Would you kindly look at the next entry?
Q: For CCN1C(=CC=CC2=[N+](CC)c3ccc4ccccc4c3C2(C)CCCCC2(C)C(C=CC=C3N(CC)c4ccc5ccccc5c4C34CCCCC4)=[N+](CC)c3ccc4ccccc4c32)C2(CCCCC2)c2c1ccc1ccccc21.F[P-](F)(F)(F)(F)F.F[P-](F)(F)(F)(F)F (centres unmarked) [Chemical Formula 3] , what is its reported Residual percentage (%) of dye?
Result: 64

* * *

# Solubility annotations
assay: Solubility of methine dye in TFP; type: physicochemical; details: dissolved in 100 ml of TFP at 20° C.
The reply should be a number in % by weight, with the unit left off.

CCN1C(=CC=CC2=[N+](CC)c3ccc4ccccc4c3C2(C)CCCCC2(C)C(C=CC=C3N(CC)c4ccc5ccccc5c4C34CCCCC4)=[N+](CC)c3ccc4ccccc4c32)C2(CCCCC2)c2c1ccc1ccccc21.F[P-](F)(F)(F)(F)F.F[P-](F)(F)(F)(F)F (centres unmarked)    2.47

Q: Value lookup for Solubility; key = CCN1C(=CC=CC2=[N+](CC)c3ccc4ccccc4c3C2(C)CCCCCCC2(C)C(C=CC=C3N(CC)c4ccc5ccccc5c4C3(C)C)=[N+](CC)c3ccc4ccccc4c32)C(C)(C)c2c1ccc1ccccc21.F[P-](F)(F)(F)(F)F.F[P-](F)(F)(F)(F)F (centres unmarked)
Result: 2.58
